- assay-target: phage displayed HA gene fragment P66-I282 (Influenza A virus A/California/07/2009 …, UniProt C3W5X2)
- procedure-text: ELISA
- test-context: both partners purified
measure-name: binding result

R1a-B6 (VHH, also called R1a-B6 monovalent; source: E. coli WK6 periplasm, purified (Talon IMAC, Superdex 75 SEC)) VHH: QVQLVESGGGLVQPGGSLRLSCAASGSFFSRYRMGWYRQAPGEQRELVASIAYDGSTSYADPVKGRFTISRDNANTVHLQMYSLKPDDTAVYYCNLDPPGILYWGQGTQVTVSS; no binding
R1a-E5 (VHH, source: E. coli WK6 periplasm, purified (Talon IMAC, Superdex 75 SEC)) VHH: QLQLVESGGGLVQPGGSLRLSCTASGFSLDNYAIGWFRRAPGEEREGVSFITSTSAVTKYADSVKGRFTISRDNAKNTVYLQMTSLKPEDTAVYYCAGTRWVPTMKADEYNYWGQGTQVTVSS; no binding
R2a-B9 (VHH, source: E. coli WK6 periplasm, purified (Talon IMAC, Superdex 75 SEC)) VHH: QVQLVESGGGLVQPGGSLRLSCAASGSAFSINAMGWYRQAPGEEREFVAAITAGGNTYYADSAKARFTISRDNAKNMLYLQMNSLKPEDTAMYYCAATKAFGIATITADYELWGQGTQVTVSS; no binding
R2a-G9 (VHH, source: E. coli WK6 periplasm, purified (Talon IMAC, Superdex 75 SEC)) VHH: QVQLVESGGGLVQPGGSLRLSCAASDNIFSFYTMGWYRQSPGKERELVAVIGNGGNTNYADSVKGRFTISRDNGKNKAHLQMNSLKPEDTAVYYCKASGPGGVEVWGQGTQVTVSS; binds
